target.under.test: HCN2 (Homo sapiens (Human))
Sequence (Q9UL51 whole entry): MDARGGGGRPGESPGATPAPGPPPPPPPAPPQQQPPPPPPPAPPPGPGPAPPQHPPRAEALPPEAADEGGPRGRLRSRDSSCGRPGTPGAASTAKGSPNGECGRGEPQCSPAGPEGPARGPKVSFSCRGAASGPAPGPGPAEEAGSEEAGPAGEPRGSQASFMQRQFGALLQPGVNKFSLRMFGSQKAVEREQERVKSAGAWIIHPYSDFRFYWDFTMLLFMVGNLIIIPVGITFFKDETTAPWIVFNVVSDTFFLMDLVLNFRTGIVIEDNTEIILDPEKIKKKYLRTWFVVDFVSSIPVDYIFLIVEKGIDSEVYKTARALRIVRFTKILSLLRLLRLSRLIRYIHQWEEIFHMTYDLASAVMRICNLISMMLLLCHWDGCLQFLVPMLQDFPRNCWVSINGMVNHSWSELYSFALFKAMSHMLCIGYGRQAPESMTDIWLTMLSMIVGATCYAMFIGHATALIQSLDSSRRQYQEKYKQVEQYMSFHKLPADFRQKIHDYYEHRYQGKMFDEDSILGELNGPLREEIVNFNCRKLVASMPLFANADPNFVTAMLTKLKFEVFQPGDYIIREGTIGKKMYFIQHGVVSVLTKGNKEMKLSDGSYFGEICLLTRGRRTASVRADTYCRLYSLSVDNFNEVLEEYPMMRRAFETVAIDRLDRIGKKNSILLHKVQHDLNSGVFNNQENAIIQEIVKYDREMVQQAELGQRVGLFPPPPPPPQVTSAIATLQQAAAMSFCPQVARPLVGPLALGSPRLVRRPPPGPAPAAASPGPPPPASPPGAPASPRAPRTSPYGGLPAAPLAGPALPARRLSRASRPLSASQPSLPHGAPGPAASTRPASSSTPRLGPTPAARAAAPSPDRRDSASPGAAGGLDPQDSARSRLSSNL
assay.overview: HCN2 current assay using PatchXpress 7000A
Type: cell-based
condition.description: PatchXpress protocol; read-out: PX HCN2 IC50
Counter-ions that a name gives are not always drawn.
property: IC50 (nM)
One number for each entry, in nM.

Example cases with answers are listed next.
>>> df
                                   molecule  property  reading
0  COc1cccc(C[C@H](N)c2ccccc2-c2noc3ccccc23)n1 [Example 115, hydrochloride]      IC50      690
1  COCCN(C)c1cccc(C[C@H](N)c2ccccc2-c2noc3ccccc23)n1 [Example 51, hydrochloride]      IC50     1700
2  CS(=O)(=O)c1cccc(C[C@H](N)c2ccccc2-c2noc3ccccc23)n1      IC50     3000
3  COCCNC(=O)c1cccc(C[C@H](N)c2ccccc2-c2noc3ccccc23)n1 [Example 108, hydrochloride]      IC50     3500
4  N[C@@H](Cc1cccc(N2CCOCC2)n1)c1ccccc1-c1noc2ccccc12 [Example 54, hydrochloride]      IC50     1000

Provide reported IC50 for each item, in the same order as listed.
1. N[C@@H](Cc1ncccn1)c1ccccc1-c1noc2ccccc12
2. N[C@@H](Cc1ccccn1)c1ccccc1-c1noc2ccccc12 [Example 42, hydrochloride]
3. CC(C)n1nc(-c2ccccc2[C@@H](N)Cc2ccccn2)c2ccccc21 [Example 65, hydrochloride]
4. N#Cc1cccc(C[C@H](N)c2c(F)cccc2-c2noc3ccccc23)n1 [Example 110, hydrochloride]
5. N#Cc1cccc(C[C@H](N)c2ccccc2-c2noc3ccccc23)n1 [Example 116, hydrochloride]

[A]
1: 1200; 2: 1100; 3: 1100; 4: 2600; 5: 700

Provide reported IC50 for each item, in the same order as listed.
1. N#Cc1ccc(C[C@H](N)c2ccccc2-c2noc3ccccc23)nc1 [Example 93, hydrochloride]
2. Cc1ccc(C(=O)N(C)C)nc1C[C@H](N)c1ccccc1-c1noc2ccccc12

[A]
1800
2500

Provide reported IC50 for each item, in the same order as listed.
1. N[C@@H](Cc1cccc(N2CC[C@@H](O)C2)n1)c1ccccc1-c1noc2ccccc12 [Example 50, hydrochloride]
2. N[C@@H](Cc1cccc(C(=O)NCC2CC2)n1)c1ccccc1-c1noc2ccccc12 [Example 107, hydrochloride]

[A]
[5600, 1400]

Provide reported IC50 for each item, in the same order as listed.
1. Cc1cccc(C[C@H](N)c2ccccc2-c2nn(C(C)C)c3ccccc23)n1 [Example 66, hydrochloride]
2. N[C@@H](Cc1ncccc1C1CC1)c1ccccc1-c1noc2ccccc12 [Example 79, formate]

[A]
900
4900

---

target.under.test: HCN4 (Homo sapiens (Human), UniProt Q9Y3Q4)
Sequence (Q9Y3Q4 whole entry, species assumed): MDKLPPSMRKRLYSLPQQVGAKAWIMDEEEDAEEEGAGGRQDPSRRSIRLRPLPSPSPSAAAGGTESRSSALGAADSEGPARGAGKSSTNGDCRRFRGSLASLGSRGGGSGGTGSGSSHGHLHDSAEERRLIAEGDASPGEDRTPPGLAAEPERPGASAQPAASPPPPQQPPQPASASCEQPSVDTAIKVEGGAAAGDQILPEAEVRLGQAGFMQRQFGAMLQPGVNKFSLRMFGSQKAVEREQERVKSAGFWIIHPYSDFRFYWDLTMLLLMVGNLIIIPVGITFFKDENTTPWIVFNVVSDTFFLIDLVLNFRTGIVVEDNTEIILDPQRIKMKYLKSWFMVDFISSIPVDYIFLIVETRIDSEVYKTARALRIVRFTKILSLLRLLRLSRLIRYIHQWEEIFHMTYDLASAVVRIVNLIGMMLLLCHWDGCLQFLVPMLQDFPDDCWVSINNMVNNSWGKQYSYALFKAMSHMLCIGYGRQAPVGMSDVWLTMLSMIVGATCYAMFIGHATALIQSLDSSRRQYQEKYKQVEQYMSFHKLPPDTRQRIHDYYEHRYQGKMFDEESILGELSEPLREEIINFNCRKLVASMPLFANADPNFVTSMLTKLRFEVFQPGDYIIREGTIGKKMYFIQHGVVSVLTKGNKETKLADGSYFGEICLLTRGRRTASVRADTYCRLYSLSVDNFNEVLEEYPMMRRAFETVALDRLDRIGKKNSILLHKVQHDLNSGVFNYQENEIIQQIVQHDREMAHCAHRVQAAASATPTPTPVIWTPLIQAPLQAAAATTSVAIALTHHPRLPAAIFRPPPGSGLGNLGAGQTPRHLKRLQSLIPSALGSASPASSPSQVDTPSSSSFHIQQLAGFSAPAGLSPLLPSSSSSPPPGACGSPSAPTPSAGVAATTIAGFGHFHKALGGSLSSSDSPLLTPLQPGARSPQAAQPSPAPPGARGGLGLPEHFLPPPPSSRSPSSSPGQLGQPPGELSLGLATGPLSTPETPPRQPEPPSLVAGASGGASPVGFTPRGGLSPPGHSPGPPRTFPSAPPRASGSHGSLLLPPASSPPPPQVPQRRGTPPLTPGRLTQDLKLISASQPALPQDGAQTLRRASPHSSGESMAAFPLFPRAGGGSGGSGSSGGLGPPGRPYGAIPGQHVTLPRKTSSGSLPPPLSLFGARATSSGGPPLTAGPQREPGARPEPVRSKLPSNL
assay.overview: HCN4 current assay using PatchXpress 7000A
Format: cell-based
condition.description: PatchXpress protocol; read-out: PX HCN4 IC50
pIC50: −log10 of the molar value. Counter-ions that a name gives are not always drawn.
Please mark 1 if the recorded pIC50 is equal to or greater than 5, and -1 if it falls below.

Please review the entries below; each comes with its answer.
>>> print(df.to_string())
                                   molecule  category
0  Cc1ccc(Br)nc1C[C@H](N)c1ccccc1-c1noc2ccccc12 [Example 57, hydrochloride]         1
1  N[C@@H](Cc1ncccn1)c1ccccc1-c1noc2ccccc12        -1
2  CNC(=O)Nc1cccc(C[C@H](N)c2ccccc2-c2noc3ccccc23)n1 [Example 122, hydrochloride]        -1

[Q] Entry Cc1noc(C)c1-c1cccc(C[C@H](N)c2ccccc2-c2noc3ccccc23)n1 [Example 94, hydrochloride] : is its pIC50 no less than 5?
[A] 1

[Q] Entry CN(CCO)c1cccc(C[C@H](N)c2ccccc2-c2noc3ccccc23)n1 [Example 55, hydrochloride] : is its pIC50 no less than 5?
[A] 1

[Q] Entry N#Cc1ccc2c(-c3ccccc3[C@@H](N)Cc3cccc(OCCO)n3)noc2c1 [Example 99, hydrochloride] : is its pIC50 no less than 5?
[A] -1

[Q] Entry Cc1cccnc1C[C@H](N)c1ccccc1-c1noc2ccccc12 [Example 47, hydrochloride] : is its pIC50 no less than 5?
[A] -1

[Q] Entry Cc1ccc(-c2noc3ccccc23)c([C@@H](N)Cc2ccccn2)c1 [Example 36, hydrochloride] : is its pIC50 no less than 5?
[A] -1

[Q] Entry CN(C)C(=O)c1ccc(F)c(C[C@H](N)c2ccccc2-c2noc3ccccc23)n1 [Example 74, hydrochloride] : is its pIC50 no less than 5?
[A] -1

[Q] Entry CCc1ccc(C)c(C[C@H](N)c2ccccc2-c2noc3ccccc23)n1 [Example 9, hydrochloride] : is its pIC50 no less than 5?
[A] 1

[Q] Entry Cc1ccc(S(C)(=O)=O)nc1C[C@H](N)c1ccccc1-c1noc2ccccc12 [Example 125, hydrochloride] : is its pIC50 no less than 5?
[A] 1

[Q] Entry N[C@@H](Cc1ccc(Br)cn1)c1ccccc1-c1noc2ccccc12 [Example 88, hydrochloride] : is its pIC50 no less than 5?
[A] -1

[Q] Entry "N#Cc1ccc2c(-c3ccccc3[C@@H](N)Cc3cccc(C#N)n3)noc2c1" : is its pIC50 no less than 5?
[A] -1

[Q] Entry N[C@@H](Cc1cccc(C(F)(F)F)n1)c1ccccc1-c1noc2ccccc12 [Example 62, hydrochloride] : is its pIC50 no less than 5?
[A] -1
